assay: Clearance in human microsomes; format: in vitro ADME; conditions: human, microsomes; CSV supplement; read-out: CLint in vitro Human Microsomes
readout label: microsomal CLint (µL/min/mg)
The figure you give is taken to be in µL/min/mg; do not add the unit.

// worked examples, microsomal CLint included
CC(C)(C)OC(=O)N[C@H]1Cc2ccc(cc2)Oc2ccc(cc2NC(=O)c2ccccn2)C(=O)CNC(=O)[C@H](c2ccccc2)NC1=O ... 197
CC(C)(C)OC(=O)N[C@H]1Cc2ccc(cc2)Oc2ccc(cc2)C(=O)CNC(=O)[C@H](Cc2ccccc2)NC1=O ... 497
CC(=O)Nc1cc2ccc1Oc1ccc(cc1)C[C@H](NC(=O)OC(C)(C)C)C(=O)N[C@@H](Cc1ccccc1)C(=O)NCC2=O ... 285

Attention now turns to another entry.
Prompt: Fill in: microsomal CLint of `CC(C)C[C@@H]1NC(=O)[C@@H](NC(=O)OC(C)(C)C)Cc2ccc(cc2)Oc2ccc(cc2NC(=O)c2ccccn2)C(=O)CNC1=O` is ___
Response: 361

---

test system: MDR1; assay: in vitro; assay type: in vitro ADME, canine; settings: dog, MDCK-MDR1, pH 7.4, ER, efflux ratio (BA/AB)
readout label: efflux ratio

# count of solved cases: 5
CC(C)(C)OC(=O)N[C@H]1Cc2ccc(cc2)Oc2ccc(cc2NC(=O)c2ccccn2)C(=O)CNC(=O)[C@H](Cc2ccccc2)NC1=O [Compound 3] ... 6.4
CC(C)C[C@@H]1NC(=O)[C@@H](NC(=O)OC(C)(C)C)Cc2ccc(cc2)Oc2ccc(cc2NC(=O)c2ccccn2)C(=O)CNC1=O [Compound 10] ... 3.1
CC(C)(C)OC(=O)N[C@H]1Cc2ccc(cc2)Oc2ccc(cc2)C(=O)CNC(=O)[C@H](Cc2ccccc2)NC1=O [Compound 1] ... 4.3
CC(C)(C)C(=O)N[C@H]1Cc2ccc(cc2)Oc2ccc(cc2NC(=O)c2ccccn2)C(=O)CNC(=O)[C@H](Cc2ccccc2)NC1=O [Compound 12] ... 21
C[C@@H]1NC(=O)[C@@H](NC(=O)OC(C)(C)C)Cc2ccc(cc2)Oc2ccc(cc2NC(=O)c2ccccn2)C(=O)CNC1=O [Compound 7] ... 28

Prompt: // efflux ratio lookup, key: CC(C)(C)OC(=O)N[C@H]1Cc2ccc(cc2)Oc2ccc(cc2NC(=O)c2ccccn2)C(=O)CNC(=O)[C@H](c2ccccc2)NC1=O [Compound 9]
Response: 9.9

Prompt: Requested read-out: efflux ratio. Entry: CC(C)(C)OC(=O)N[C@H]1Cc2ccc(cc2)Oc2ccc(cc2NC(=O)c2ccccn2)C(=O)CNC(=O)[C@@H](Cc2ccccc2)NC1=O [Compound 8]
Response: 7.6

Prompt: For the compound CC(C)(C)OC(=O)N[C@H]1CCc2ccc(cc2)Oc2ccc(cc2NC(=O)c2ccccn2)C(=O)CNC(=O)[C@H](Cc2ccccc2)NC1=O [Compound 5] , what efflux ratio is on record?
Response: 13

Prompt: Query (compound): CC(=O)Nc1cc2ccc1Oc1ccc(cc1)C[C@H](NC(=O)OC(C)(C)C)C(=O)N[C@@H](Cc1ccccc1)C(=O)NCC2=O [Compound 2] ; field requested: efflux ratio
Response: 19

Prompt: Endpoint output: efflux ratio of CC(C)(C)OC(=O)N[C@H]1Cc2ccc(cc2)Oc2ccc(cc2NC(=O)c2ccccn2)CCNC(=O)[C@H](Cc2ccccc2)NC1=O [Compound 6] . Value?
Response: 8.4
